Hey, just so you know, these numbers are from patent EP1323715B1.

# TARGET: cholesterol esterase (CE) (Homo sapiens)
# Sequence (P19835 21-753, species assumed): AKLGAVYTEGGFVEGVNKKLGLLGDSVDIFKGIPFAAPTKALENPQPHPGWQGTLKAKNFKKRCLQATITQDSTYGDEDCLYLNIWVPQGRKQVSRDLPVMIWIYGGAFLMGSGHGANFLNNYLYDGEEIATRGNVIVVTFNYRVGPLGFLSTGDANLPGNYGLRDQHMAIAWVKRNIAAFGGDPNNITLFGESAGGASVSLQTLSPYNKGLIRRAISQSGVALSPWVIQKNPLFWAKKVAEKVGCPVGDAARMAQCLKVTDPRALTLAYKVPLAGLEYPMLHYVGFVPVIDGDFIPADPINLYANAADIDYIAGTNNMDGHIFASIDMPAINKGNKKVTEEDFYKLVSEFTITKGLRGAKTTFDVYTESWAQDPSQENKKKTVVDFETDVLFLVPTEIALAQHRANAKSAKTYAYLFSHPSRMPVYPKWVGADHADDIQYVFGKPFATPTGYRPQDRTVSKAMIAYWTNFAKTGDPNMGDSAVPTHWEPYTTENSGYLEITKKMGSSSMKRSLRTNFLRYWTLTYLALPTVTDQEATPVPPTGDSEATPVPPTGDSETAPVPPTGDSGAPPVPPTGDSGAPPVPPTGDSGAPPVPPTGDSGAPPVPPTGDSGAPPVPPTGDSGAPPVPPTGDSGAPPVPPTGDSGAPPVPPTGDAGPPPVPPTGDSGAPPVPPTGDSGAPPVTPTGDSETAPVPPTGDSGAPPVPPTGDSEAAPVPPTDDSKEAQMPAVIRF
# ASSAY_REMARKS: Kinetic inhibition studies of CE with substrate p-nitrophenylbutyrate, Dixon plots
# CONDITION_SET: calculated Ki, apparent Ki from Dixon plots; equals one half of the concentration of CE used in the assay
MEASURED_METRIC: pKi
Numbers only, as −log10 of the molar value.

Q: Indicate its recorded pKi; the molecule in question is "O=c1oc(Cl)ccc1CCC1CCCCC1"
Result: 7.52

----------
# TARGET: UniProt:P00766
# ASSAY_REMARKS: Inhibition of chymotrypsin
# Type: biochemical
MEASURED_METRIC: Ki (µM)
Answers are plain numbers, in µM.

Q: Indicate its recorded Ki; the compound in question is "O=c1oc(Cl)ccc1CCC1CCCCC1"
Result: 50
